B1: FAM9B (parent)
chain: EDLTAKRKRMKMDKTCSKTKNKSK

Variants of: B1
ASSAY_INFO: protein stability index of a GFP-peptide fusion (GPS, HEK-293T) (PSI 1-6); higher = more stable;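 further: lentivirally expressed fusions sorted by FACS into six bins by GFP to DsRed ratio, PSI derived from sequencing read proportions per bin multiplied by bin number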
SETUP_CONDITIONS: c terminus: a fixed tail appended
The label depends only on protein stability index: y if it is at least 5, n if it is smaller.

Decide: protein stability index of K14I >= 5? n

Decide: protein stability index of K20W >= 5? n

Decide: protein stability index of M10P >= 5? n

Decide: protein stability index of K24H >= 5? n

Decide: protein stability index of T19K >= 5? y

Decide: protein stability index of L3K >= 5? y

Decide: protein stability index of D2N >= 5? n

Decide: protein stability index of M12E >= 5? y

Decide: protein stability index of A5R >= 5? y

Decide: protein stability index of A5M >= 5? y

Decide: protein stability index of T15K >= 5? n

Decide: protein stability index of M12G >= 5? y

Decide: protein stability index of A5C >= 5? n

Decide: protein stability index of K18G >= 5? n

Decide: protein stability index of K6S >= 5? y

Decide: protein stability index of R9L >= 5? n
